Measured values drawn from ChEMBL document CHEMBL1777748 for this set.

Here, each record is paired with measured microsomal CLint data.
- assay: Intrinsic clearance in human liver microsomes
- protocol-conditions: liver microsomes

CCS(=O)(=O)c1ccc(-c2cc(C(F)(F)F)ccc2O[C@H](C)C(=O)O)c(C)c1 :: < 3 µL/min/mg
Nc1ccc(OCC(=O)O)c(-c2ccccc2)c1 :: < 3 µL/min/mg

Now examine the next entry.
Prompt line: Tell me its microsomal CLint given C[C@@H](Oc1ccc(C(F)(F)F)cc1-c1cccc(C#N)c1)C(=O)O as the entry.
Response line: < 3 µL/min/mg

====

- target-desc: Prostaglandin D2 receptor 2 (Homo sapiens, UniProt Q9Y5Y4)
- Sequence (Q9Y5Y4 whole entry): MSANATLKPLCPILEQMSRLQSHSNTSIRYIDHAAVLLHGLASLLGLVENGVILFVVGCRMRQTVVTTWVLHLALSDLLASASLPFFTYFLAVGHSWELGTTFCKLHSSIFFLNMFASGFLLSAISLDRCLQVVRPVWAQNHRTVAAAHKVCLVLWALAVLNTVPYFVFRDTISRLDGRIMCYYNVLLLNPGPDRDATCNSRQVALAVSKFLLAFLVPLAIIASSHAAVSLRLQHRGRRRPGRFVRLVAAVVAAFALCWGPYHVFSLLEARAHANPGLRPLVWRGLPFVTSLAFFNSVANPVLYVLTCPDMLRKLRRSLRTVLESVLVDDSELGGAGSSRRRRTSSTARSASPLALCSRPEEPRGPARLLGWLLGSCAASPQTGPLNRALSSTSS
- assay: Displacement of [3H]-PGD2 from CRTh2 receptor by scintillation proximity assay
property-name: IC50 (nM)
Please give a number only; it is taken to be in nM.

Known IC50 results, listed for orientation:
CCS(=O)(=O)c1ccc(-c2cc(Cl)ccc2OCC(=O)O)c(Cl)c1 :: 1.5
CN(c1ccc(-c2cc(C(F)(F)F)ccc2OCC(=O)O)cc1)S(C)(=O)=O :: 0.8
C[C@@H](Oc1ccc(C(F)(F)F)cc1-c1cccc(C#N)c1)C(=O)O :: 0.6

Now examine the next entry.
Prompt line: Tell me its IC50 given CCS(=O)(=O)c1ccc(-c2cc(C(F)(F)F)ccc2O[C@H](C)C(=O)O)c(C)c1 as the entry.
Response line: 1.6
